Value source: ChEMBL document CHEMBL5303573

details: anaerostipes sp., 12 h, 2 µM
Description: The drug is tested on Anaerostipes sp. strain: fecal isolate for biotransformation. The drug concentrations were measured before and after a 12-h incubation by liquid-chromatography-coupled mass spectrometry (LC–MS)
readout.name: Bacterial Biotransformation

> print(dat)
                                    compound                 readout.name      recorded.measurement
 1  O=C(CCCN1CCC2(CC1)C(=O)NCN2c1ccccc1)c1ccc(F)cc1  Bacterial Biotransformation  Compound NOT metabolized
 2  CN1C(=O)CC(C)(c2ccccc2)C1=O (configuration not stated) [METHSUXIMIDE]  Bacterial Biotransformation  Compound NOT metabolized
 3  OCCN1CCN(CCCN2c3ccccc3Sc3ccc(C(F)(F)F)cc32)CC1  Bacterial Biotransformation      Compound metabolized
 4  CCOc1cc(CC(=O)N[C@@H](CC(C)C)c2ccccc2N2CCCCC2)ccc1C(=O)O [REPAGLINIDE]  Bacterial Biotransformation  Compound NOT metabolized
 5  CN1CC(=O)N2[C@H](c3ccc4c(c3)OCO4)c3[nH]c4ccccc4c3C[C@@H]2C1=O  Bacterial Biotransformation  Compound NOT metabolized
 6  COc1ccc2c(c1OC)C(=O)O[C@@H]2[C@H]1c2c(cc3c(c2OC)OCO3)CCN1C  Bacterial Biotransformation      Compound metabolized
 7  Cc1ccc(S(=O)(=O)NC(=O)NN2CC3CCCC3C2)cc1 (configuration not stated) [GLICLAZIDE]  Bacterial Biotransformation  Compound NOT metabolized
 8  COc1cc2c(c(OC)c1OC)-c1ccc(OC)c(=O)cc1[C@@H](NC(C)=O)CC2  Bacterial Biotransformation      Compound metabolized
 9  CN(C)C(=O)Oc1cccc([N+](C)(C)C)c1.[Br-] [NEOSTIGMINE BROMIDE]  Bacterial Biotransformation  Compound NOT metabolized
10  C#C[C@]1(O)CC[C@H]2[C@@H]3CCC4=Cc5oncc5C[C@]4(C)[C@H]3CC[C@@]21C  Bacterial Biotransformation      Compound metabolized
11  CCN(CC)CCNC(=O)c1cc(S(C)(=O)=O)ccc1OC [TIAPRIDE]  Bacterial Biotransformation  Compound NOT metabolized
12             CCc1nc(N)nc(N)c1-c1ccc(Cl)cc1  Bacterial Biotransformation  Compound NOT metabolized
13  CC(O)(CS(=O)(=O)c1ccc(F)cc1)C(=O)Nc1ccc(C#N)c(C(F)(F)F)c1 (configuration not stated) [BICALUTAMIDE]  Bacterial Biotransformation  Compound NOT metabolized
14  CCN(C)C(=O)Oc1cccc([C@H](C)N(C)C)c1.O=C(O)C(O)C(O)C(=O)O [RIVASTIGMINE TARTRATE]  Bacterial Biotransformation  Compound NOT metabolized
15  CCCN1C[C@H](CSC)C[C@@H]2c3cccc4[nH]cc(c34)C[C@H]21.CS(=O)(=O)O [PERGOLIDE MESYLATE]  Bacterial Biotransformation  Compound NOT metabolized
16  O=c1[nH]c2ccccc2n1C1CCN(CCCC(c2ccc(F)cc2)c2ccc(F)cc2)CC1 [PIMOZIDE]  Bacterial Biotransformation  Compound NOT metabolized
17  COc1cc(C(=O)NCc2ccc(OCCN(C)C)cc2)cc(OC)c1OC [TRIMETHOBENZAMIDE]  Bacterial Biotransformation  Compound NOT metabolized

###

test: The drug is tested on Bacteroides xylanisolvens strain: DSM18836 for biotransformation. The drug concentrations were measured before and after a 12-h incubation by liquid-chromatography-coupled mass spectrometry (LC–MS); details: 2 µM
readout.name: Bacterial Biotransformation

compound	recorded.measurement
CN(C)CCc1c[nH]c2ccc(Cn3cncn3)cc12.O=C(O)c1ccccc1 [RIZATRIPTAN BENZOATE]	Compound NOT metabolized
CN1CCN(C2=Nc3cc(Cl)ccc3Nc3ccccc32)CC1 [CLOZAPINE]	Compound NOT metabolized
COc1ccnc(C[S+]([O-])c2nc3ccc(OC(F)F)cc3[nH]2)c1OC (configuration not stated) [PANTOPRAZOLE]	Compound metabolized
C[C@@H]1CC[C@H]2[C@@H](C)C(=O)O[C@@H]3O[C@@]4(C)CC[C@@H]1[C@]32OO4 [ARTEMISININ]	Compound metabolized
CCOc1ccc(NC(C)=O)cc1 [PHENACETIN]	Compound NOT metabolized
O=C(CCCN1CCC2(CC1)C(=O)NCN2c1ccccc1)c1ccc(F)cc1 [SPIPERONE]	Compound NOT metabolized
CC(CN1c2ccccc2Sc2ccccc21)N(C)C (configuration not stated) [PROMETHAZINE]	Compound NOT metabolized
COc1ccc2c(c1OC)C(=O)O[C@@H]2[C@H]1c2c(cc3c(c2OC)OCO3)CCN1C [NOSCAPINE]	Compound metabolized
CCc1cccc2c3c([nH]c12)C(CC)(CC(=O)O)OCC3 (configuration not stated) [ETODOLAC]	Compound metabolized
CCC(COC(=O)c1cc(OC)c(OC)c(OC)c1)(c1ccccc1)N(C)C.O=C(O)/C=C\C(=O)O (configuration not stated)	Compound metabolized
O=c1n(CCCN2CCN(c3cccc(Cl)c3)CC2)nc2ccccn12 [TRAZODONE]	Compound NOT metabolized
COCCCC/C(=N\OCCN)c1ccc(C(F)(F)F)cc1.O=C(O)/C=C\C(=O)O [FLUVOXAMINE MALEATE]	Compound NOT metabolized
CC(=O)OCC(=O)[C@@]1(OC(C)=O)[C@@H](C)C[C@H]2[C@@H]3C[C@H](F)C4=CC(=O)C=C[C@]4(C)[C@@]3(F)[C@@H](O)C[C@@]21C [DIFLORASONE DIACETATE]	Compound metabolized
COC1=C(OC)C(=O)C(CCCCCCCCCCO)=C(C)C1=O [IDEBENONE]	Compound metabolized
Clc1ccc(Cn2c(CN3CCCC3)nc3ccccc32)cc1 [CLEMIZOLE]	Compound NOT metabolized
OC(CCN1CCCCC1)(c1ccccc1)C1CCCCC1 (configuration not stated) [TRIHEXYPHENIDYL]	Compound NOT metabolized
CC[C@@H](CO)NC(=O)[C@@H]1C=C2c3cccc4c3c(cn4C)C[C@H]2N(C)C1.O=C(O)/C=C\C(=O)O [METHYSERGIDE MALEATE]	Compound metabolized
